# System under test: Nuclear receptor ROR-gamma (Homo sapiens, UniProt P51449)
# Sequence (P51449 whole entry): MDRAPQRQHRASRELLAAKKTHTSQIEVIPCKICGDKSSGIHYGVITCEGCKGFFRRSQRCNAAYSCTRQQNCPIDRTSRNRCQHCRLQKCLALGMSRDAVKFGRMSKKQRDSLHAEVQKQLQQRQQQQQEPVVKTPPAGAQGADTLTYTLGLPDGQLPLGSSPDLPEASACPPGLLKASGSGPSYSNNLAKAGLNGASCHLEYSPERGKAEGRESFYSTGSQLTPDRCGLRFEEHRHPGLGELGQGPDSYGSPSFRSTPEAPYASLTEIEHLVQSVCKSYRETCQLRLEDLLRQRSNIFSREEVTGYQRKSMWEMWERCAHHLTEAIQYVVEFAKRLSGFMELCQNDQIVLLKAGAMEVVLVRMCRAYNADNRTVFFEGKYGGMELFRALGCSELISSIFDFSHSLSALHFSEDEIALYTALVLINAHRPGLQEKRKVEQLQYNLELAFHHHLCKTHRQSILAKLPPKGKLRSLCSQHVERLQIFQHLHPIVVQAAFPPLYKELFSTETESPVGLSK
# Assay protocol: Binding affinity to CM5 chip-immobilized recombinant ROR-gamma LBD (unknown origin) assessed as dissociation constant by SPR analysis
pKd: −log10 of the molar value.
Reported pKd is given for each of the following compounds.
Outcome measure: pKd

• C=C(C)[C@@H]1CC[C@]2(C(=O)N[C@@H]3CN4CCC3CC4)CC[C@]3(C)[C@H](CC[C@@H]4[C@@]5(C)CC[C@H](O)C(C)(C)[C@@H]5CC[C@]43C)[C@@H]12 = 6.92
• C=C(C)[C@@H]1CC[C@]2(C(=O)NC3CCCN(C)CC3)CC[C@]3(C)[C@H](CC[C@@H]4[C@@]5(C)CC[C@H](O)C(C)(C)[C@@H]5CC[C@]43C)[C@@H]12 (stereo partly drawn) = 6.60
• C=C(C)[C@@H]1CC[C@]2(C(=O)NCCN3CCCC3)CC[C@]3(C)[C@H](CC[C@@H]4[C@@]5(C)CC[C@H](O)C(C)(C)[C@@H]5CC[C@]43C)[C@@H]12 = 6.06
• C=C(C)[C@@H]1CC[C@]2(C(=O)NCCNc3ccncc3)CC[C@]3(C)[C@H](CC[C@@H]4[C@@]5(C)CC[C@H](O)C(C)(C)[C@@H]5CC[C@]43C)[C@@H]12 = 6.23
• C=C(C)[C@@H]1CC[C@]2(C(=O)NCCN3CCC(O)C3)CC[C@]3(C)[C@H](CC[C@@H]4[C@@]5(C)CC[C@H](O)C(C)(C)[C@@H]5CC[C@]43C)[C@@H]12 (stereo partly drawn) = 6.54
• C=C(C)[C@@H]1CC[C@]2(C(=O)N[C@H]3CCN(C)C3)CC[C@]3(C)[C@H](CC[C@@H]4[C@@]5(C)CC[C@H](O)C(C)(C)[C@@H]5CC[C@]43C)[C@@H]12 = 5.73
• C=C(C)[C@@H]1CC[C@]2(C(=O)NCCCN(C)C)CC[C@]3(C)[C@H](CC[C@@H]4[C@@]5(C)CC[C@H](O)C(C)(C)[C@@H]5CC[C@]43C)[C@@H]12 = 6.74
• C=C(C)[C@@H]1CC[C@]2(C(=O)NCCCN(C)C)CC[C@]3(C)[C@H](CC[C@@H]4[C@@]5(C)CC[C@H](N)C(C)(C)[C@@H]5CC[C@]43C)[C@@H]12 = 5.34
• C=C(C)[C@@H]1CC[C@]2(C(=O)N[C@@H]3CCCN(C)C3)CC[C@]3(C)[C@H](CC[C@@H]4[C@@]5(C)CC[C@H](O)C(C)(C)[C@@H]5CC[C@]43C)[C@@H]12 = 6.47
• C=C(C)[C@@H]1CC[C@]2(C(=O)NCC(C)(C)CN(C)C)CC[C@]3(C)[C@H](CC[C@@H]4[C@@]5(C)CC[C@H](O)C(C)(C)[C@@H]5CC[C@]43C)[C@@H]12 = 5.54
• C=C(C)[C@@H]1CC[C@]2(C(=O)NC[C@@H]3CCCN3C)CC[C@]3(C)[C@H](CC[C@@H]4[C@@]5(C)CC[C@H](O)C(C)(C)[C@@H]5CC[C@]43C)[C@@H]12 = 6.18
• C=C(C)[C@@H]1CC[C@]2(C(=O)N[C@H]3CCCN(C)C3)CC[C@]3(C)[C@H](CC[C@@H]4[C@@]5(C)CC[C@H](O)C(C)(C)[C@@H]5CC[C@]43C)[C@@H]12 = 6.02
• C=C(C)[C@@H]1CC[C@]2(C(=O)Nc3nccs3)CC[C@]3(C)[C@H](CC[C@@H]4[C@@]5(C)CC[C@H](O)C(C)(C)[C@@H]5CC[C@]43C)[C@@H]12 = 5.26
• C=C1C[C@]2(C)[C@H]3CC[C@@H]4[C@H]5[C@H](C(=C)C)CC[C@]5(C(=O)NCCCN(C)C)CC[C@@]4(C)[C@]3(C)CC[C@H]2C(C)(C)C1=O = 5.19
• C=C(C)[C@@H]1CC[C@]2(C(=O)NCCOCCN(C)C)CC[C@]3(C)[C@H](CC[C@@H]4[C@@]5(C)CC[C@H](O)C(C)(C)[C@@H]5CC[C@]43C)[C@@H]12 = 6.28
• C=C(C)[C@@H]1CC[C@]2(C(=O)N[C@@H]3CCN(C)C3)CC[C@]3(C)[C@H](CC[C@@H]4[C@@]5(C)CC[C@H](O)C(C)(C)[C@@H]5CC[C@]43C)[C@@H]12 = 6.17
• C=C(C)[C@@H]1CC[C@]2(C(=O)NCCN(CC)CCO)CC[C@]3(C)[C@H](CC[C@@H]4[C@@]5(C)CC[C@H](O)C(C)(C)[C@@H]5CC[C@]43C)[C@@H]12 = 5.95
• C=C(C)[C@@H]1CC[C@]2(C(=O)NCCN(CC)CC)CC[C@]3(C)[C@H](CC[C@@H]4[C@@]5(C)CC[C@H](O)C(C)(C)[C@@H]5CC[C@]43C)[C@@H]12 = 6.14

* * *

# Tested on: HPAF-II
# Assay protocol: Antitumor activity against human HPAF-II cells measured after 72 hrs
# Assay type: functional, cell-based
pIC50: −log10 of the molar value.
Catalogue of pIC50 values
Outcome measure: pIC50

* C=C(C)[C@@H]1CC[C@]2(C(=O)NC3CCNCC3)CC[C@]3(C)[C@H](CC[C@@H]4[C@@]5(C)CC[C@H](O)C(C)(C)[C@@H]5CC[C@]43C)[C@@H]12 | 5.92
* C=C(C)[C@@H]1CC[C@]2(C(=O)NCCNc3ccncc3)CC[C@]3(C)[C@H](CC[C@@H]4[C@@]5(C)CC[C@H](O)C(C)(C)[C@@H]5CC[C@]43C)[C@@H]12 | 6.51
* C=C(C)[C@@H]1CC[C@]2(C(=O)N[C@@H]3CCCN(C)C3)CC[C@]3(C)[C@H](CC[C@@H]4[C@@]5(C)CC[C@H](O)C(C)(C)[C@@H]5CC[C@]43C)[C@@H]12 | 6.52
* C=C(C)[C@@H]1CC[C@]2(C(=O)Nc3nccs3)CC[C@]3(C)[C@H](CC[C@@H]4[C@@]5(C)CC[C@H](O)C(C)(C)[C@@H]5CC[C@]43C)[C@@H]12 | 5.71
* C=C(C)[C@@H]1CC[C@]2(C(=O)NCc3cc[nH]n3)CC[C@]3(C)[C@H](CC[C@@H]4[C@@]5(C)CC[C@H](O)C(C)(C)[C@@H]5CC[C@]43C)[C@@H]12 | 5.15
* C=C(C)[C@@H]1CC[C@]2(C(=O)N[C@@H]3CN4CCC3CC4)CC[C@]3(C)[C@H](CC[C@@H]4[C@@]5(C)CC[C@H](O)C(C)(C)[C@@H]5CC[C@]43C)[C@@H]12 | 6.89
* CN(C)CCCNC(=O)[C@]12CC[C@@H](C3(C)CC3)[C@@H]1[C@H]1CC[C@@H]3[C@@]4(C)CC[C@H](O)C(C)(C)[C@@H]4CC[C@@]3(C)[C@]1(C)CC2 | 6.92
* C=C(C)[C@@H]1CC[C@]2(C(=O)N[C@H]3CCCN(C)C3)CC[C@]3(C)[C@H](CC[C@@H]4[C@@]5(C)CC[C@H](O)C(C)(C)[C@@H]5CC[C@]43C)[C@@H]12 | 6.46
* C=C(C)[C@@H]1CC[C@]2(C(=O)NCCCN(C)C)CC[C@]3(C)[C@H](CC[C@@H]4[C@@]5(C)C[C@H](O)C(C)(C)[C@@H]5CC[C@]43C)[C@@H]12 | 5.56
* C=C(C)[C@@H]1CC[C@]2(C(=O)NCCN3CCCC3)CC[C@]3(C)[C@H](CC[C@@H]4[C@@]5(C)CC[C@H](O)C(C)(C)[C@@H]5CC[C@]43C)[C@@H]12 | 6.64

* * *

# Assay protocol: AUClast in ICR mouse at 10 mg/kg, po
# Format: ADME, organism-based
# Stated conditions: in vivo
Outcome measure: AUC(0-t) (ng·h/mL)

• C=C(C)[C@@H]1CC[C@]2(C(=O)NCCCN(C)C)CC[C@]3(C)[C@H](CC[C@@H]4[C@@]5(C)CC[C@H](O)C(C)(C)[C@@H]5CC[C@]43C)[C@@H]12 = 1670
